These data points were gathered from patent US20260109761A1.

target-or-system: T1, huZIP12-ECD-GST (human, UniProt Q504Y0 24-202)
T1 construct: also called hZIP12-ECD-GST; human ZIP12-ECD-GST; not shown: glutathione S-transferase (GST) tag
T1 sequence (Q504Y0 24-202): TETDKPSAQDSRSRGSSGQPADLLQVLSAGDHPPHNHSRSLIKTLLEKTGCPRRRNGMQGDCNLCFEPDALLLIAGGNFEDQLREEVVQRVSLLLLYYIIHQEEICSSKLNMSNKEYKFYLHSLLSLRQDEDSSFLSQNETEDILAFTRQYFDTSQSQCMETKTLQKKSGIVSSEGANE
assay-protocol: SPR single cycle kinetics (Biacore): mAb captured on protein A, huZIP12-ECD-GST injected at 3.12-800 nM
result-type: Kd (nM)
The response must be a number in nM with no trailing unit.

Below, 4 binders whose answers are already recorded.
H2_T63Y_L1 (antibody, V domains shown, Fc null human IgG1 / human kappa) VH: QVQLVESGGGVVQPGRSLRLSCAASGFTFSDYGMHWVRQAPGKGLEWVAYISSGGTTIYYADYVKGRFTISRDNSKNTLYLQMNSLRAEDTAVYYCARWTNLYAMDYWGQGTTVTVSS VL: DIVLTQSPDSLAVSLGERATINCRASKSVSTQGYSYMHWYQQKPGQPPKFLIYLASNLESGVPDRFSGSGSGTDFTLTISSLQAEDVAVYYCQHSREVPYTFGGGTKVEIKR | 1.07
H3_W99H_L1 (antibody, V domains shown, Fc null human IgG1 / human kappa) VH: QVQLVESGGGVVQPGRSLRLSCAASGFTFSDYGMHWVRQAPGKGLEWVAYISSGGTTIYYADTVKGRFTISRDNSKNTLYLQMNSLRAEDTAVYYCARHTNLYAMDYWGQGTTVTVSS VL: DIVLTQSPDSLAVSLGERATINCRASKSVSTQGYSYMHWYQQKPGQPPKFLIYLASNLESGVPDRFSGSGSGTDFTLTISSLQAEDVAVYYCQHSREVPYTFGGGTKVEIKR | 0.533
H2_T63Y_L2 (antibody, V domains shown, Fc null human IgG1 / human kappa) VH: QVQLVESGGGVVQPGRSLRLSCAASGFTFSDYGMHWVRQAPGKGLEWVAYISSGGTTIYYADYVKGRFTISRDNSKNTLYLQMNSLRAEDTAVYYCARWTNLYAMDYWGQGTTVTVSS VL: DIVLTQSPDSLAVSLGERATINCRASKSVSTSGYSYMHWYQQKPGQPPKFLIYLASNKESGVPDRFSGSGSGTDFTLTISSLQAEDVAVYYCQHSREVPYTFGGGTKVEIKR | 1.15
H2_K65P_VL-par (antibody, V domains shown, Fc null human IgG1 / human kappa) VH: QVQLVESGGGVVQPGRSLRLSCAASGFTFSDYGMHWVRQAPGKGLEWVAYISSGGTTIYYADTVPGRFTISRDNSKNTLYLQMNSLRAEDTAVYYCARWTNLYAMDYWGQGTTVTVSS VL: DIVLTQSPDSLAVSLGERATINCRASKSVSTSGYSYMHWYQQKPGQPPKFLIYLASNLESGVPDRFSGSGSGTDFTLTISSLQAEDVAVYYCQHSREVPYTFGGGTKVEIKR | 1.08

Please find the next binder below.
Quote Kd reported for H3_M105P_L2 (antibody, V domains shown, Fc null human IgG1 / human kappa) VH: QVQLVESGGGVVQPGRSLRLSCAASGFTFSDYGMHWVRQAPGKGLEWVAYISSGGTTIYYADTVKGRFTISRDNSKNTLYLQMNSLRAEDTAVYYCARWTNLYAPDYWGQGTTVTVSS VL: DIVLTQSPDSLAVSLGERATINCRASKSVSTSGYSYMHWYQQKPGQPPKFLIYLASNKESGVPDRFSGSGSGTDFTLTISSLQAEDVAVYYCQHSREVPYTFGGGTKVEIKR please.
1.93
